- Tested on: S. Typhi PhoP-promoter GFP reporter, fluorescence, 4 h
- test-summary: PhoP regulon inhibitor project modified counter assay, GFP fluorescence readout, dose response (AID 1985)
property-name: IC50

Ask: Give its IC50 value. Item: O=C(CCN1CCN(C(=O)c2ccccc2)CC1)c1ccc(Br)cc1
Result: 144 µM

Ask: Subsequent entry: O=C1C(SCCO)=C(SCCO)C(=O)c2ccccc21
Result: 122 µM

Ask: Subsequent entry: COC(=O)C1=C(C)N(Cc2ccccc2)C(=NCc2cccc(C(F)(F)F)c2)N[C@H]1c1cccc(F)c1
Result: 86.1 µM

Ask: Subsequent entry: O=c1[nH]cc(N=Cc2cc([N+](=O)[O-])ccc2O)c(=O)[nH]1
Result: 39.7 µM

Ask: Subsequent entry: Cc1ccc(OCC(=O)N/N=C\c2c(C)[nH]n(-c3ccccc3)c2=O)c([N+](=O)[O-])c1
Result: 53.6 µM

Ask: Subsequent entry: Cc1c(CCOC(=O)C2C3CC4CC(C3)CC2C4)sc[n+]1CC(=O)c1ccc(Br)cc1 (centres undefined)
Result: 56.9 µM

Ask: Subsequent entry: CN1CCN(C2=Cc3cc(Cl)ccc3Sc3cc(F)ccc32)CC1
Result: 137 µM

Ask: Subsequent entry: COc1c(N2CCN(C(=S)NCc3ccccc3)C(C)C2)c(F)cc2c(=O)c(C(=O)O)cn(C3CC3)c12 (centres undefined)
Result: 10.8 µM

Ask: Subsequent entry: CCC(=O)N1CCN(c2cc3c(cc2F)c(=O)c(C(=O)O)cn3CC)CC1
Result: 126 µM

Ask: Subsequent entry: CC(C(=O)NC1C=CS(=O)(=O)C1)N1C(=O)/C(=C/c2ccc(Cl)cc2)SC1=S (centres undefined)
Result: 22.2 µM

Ask: Subsequent entry: Oc1ccc(C[C@@H]2CNCCN2CCC23CC4CC(CC(C4)C2)C3)cc1
Result: 78.9 µM

Ask: Subsequent entry: CCOC(=O)N1CCN(C(=O)c2cn(CC)c3cc(N4CCN(C)CC4)c(F)cc3c2=O)CC1
Result: 7.67 µM

Ask: Subsequent entry: O=C1c2ccccc2NC(c2ccc(-c3ccc(Br)cc3)o2)N1O (centres undefined)
Result: 81.1 µM

Ask: Subsequent entry: COc1nccnc1NS(=O)(=O)c1ccc(N=Cc2c(C)[nH]n(-c3ccc(C)c(C)c3)c2=O)cc1
Result: 114 µM

Ask: Subsequent entry: C#CCOCCOCCOCCNc1nc(N2CCN(C(=O)[C@H](Cc3ccc(O)cc3)n3cc([C@@H](N)CC(C)C)nn3)CC2)nc(N2CCN(C(=O)[C@H](Cc3cc4ccccc4[nH]3)n3cc([C@@H](N)CC(C)C)nn3)CC2)n1
Result: 85.1 µM

Ask: Subsequent entry: CCn1nc(C(=O)O)c(=O)c2cc3c(cc21)OCO3
Result: 103 µM

Ask: Subsequent entry: N=c1c2c(n(Cc3ccc(Cl)cc3Cl)c3c1CCC3)CCCC2
Result: 80.7 µM

Ask: Subsequent entry: CCn1cc(C(=O)O)c(=O)c2cc(F)c(N3CCN(C(=S)NC(=O)c4cccc(C)c4)CC3)cc21
Result: 8.37 µM

Ask: Subsequent entry: CCc1nccc2c1[nH]c1ccccc12
Result: 123 µM
